- Test system: 5-HT4 receptor (Rattus norvegicus)
- Sequence (Q62758 whole entry): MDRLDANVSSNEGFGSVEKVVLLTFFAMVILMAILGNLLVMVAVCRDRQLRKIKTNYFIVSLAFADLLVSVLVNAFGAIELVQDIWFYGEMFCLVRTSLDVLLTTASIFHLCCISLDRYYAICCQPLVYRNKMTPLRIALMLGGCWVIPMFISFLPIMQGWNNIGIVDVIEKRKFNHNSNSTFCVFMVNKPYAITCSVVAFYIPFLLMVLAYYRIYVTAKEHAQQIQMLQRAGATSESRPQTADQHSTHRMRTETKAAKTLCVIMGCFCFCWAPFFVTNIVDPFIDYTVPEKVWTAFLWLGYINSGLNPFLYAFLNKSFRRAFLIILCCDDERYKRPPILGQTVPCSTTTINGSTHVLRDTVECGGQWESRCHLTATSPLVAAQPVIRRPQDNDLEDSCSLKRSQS
- Protocol notes: agonist-induced PKA-RII phosphorylation in rat DRG neurons, reduced by GR113808
Test readout: EC50
Please answer in the form of a number followed by its unit of measurement.

Value of EC50 reported for the compound COCCCN1CCC(NC(=O)c2cc(Cl)c(N)c3c2OCC3)CC1 [Ppr, prucalopride] is 0.0102 µM

Origin of measurements: paper PMC7856035
